This collection of values is drawn from paper PMC9826232.

Each entry below carries its recorded pIC50.
- Tested on: HCT15 (G13D)
- methodNotes: CellTiter-Glo cell viability assay, HCT15
- Format: cell-based
- particulars: Homo sapiens, HCT-15, 72 h, read-out: Cellular activity IC50, HCT15 (G13D)
Kindly note that pIC50 refers to -log10 of the concentration in mol/L and answer with the value alone.

1. O=S(=O)(NN=C(c1ccc(O)cc1)c1ccc(O)cc1)c1ccc(OC(F)(F)F)cc1 | 3.95
2. Oc1ccc(C(=NNc2ccc(C(F)(F)F)cc2)c2ccc(O)cc2)cc1 | 4.90
3. O=S(=O)(NN=C(c1ccc(O)cc1)c1ccc(O)cc1)c1ccc(Br)cc1 | 4.02

Q. Can you share its pIC50? I mean this compound: COc1ccc(S(=O)(=O)NN=C(c2ccc(O)cc2)c2ccc(O)cc2)cc1
A. 3.66

Q. Can you share its pIC50? I mean this compound: O=S(=O)(NN=C(c1ccc(O)cc1)c1ccc(O)cc1)c1ccccc1
A. 3.95

----------
Each entry below carries its recorded IC50.
- System: A549 (G12S)
- methodNotes: CellTiter-Glo cell viability assay, A549
- Format: cell-based
- particulars: Homo sapiens, A549, 72 h, read-out: Cellular activity IC50, A549 (G12S)
Number in µM, nothing else.

Q. Can you share its IC50? I mean this molecule: O=S(=O)(NN=C(c1ccc(O)cc1)c1ccc(O)cc1)c1ccc(OC(F)(F)F)cc1
A. 111

Q. Can you share its IC50? I mean this molecule: O=[N+]([O-])c1ccc(S(=O)(=O)NN=C(c2ccc(O)cc2)c2ccc(O)cc2)cc1
A. 49.8

Q. Can you share its IC50? I mean this molecule: O=C(c1nc2cccc(O)c2[nH]1)c1cc2cccc(O)c2o1
A. 45.3

Q. Can you share its IC50? I mean this molecule: Oc1ccc(C(=NNc2ccc(C(F)(F)F)cc2)c2ccc(O)cc2)cc1
A. 11.9

Q. Can you share its IC50? I mean this molecule: Oc1ccc(C(=NNc2ccc(F)cc2)c2ccc(O)cc2)cc1
A. 28.7

Q. Can you share its IC50? I mean this molecule: Oc1ccc(C(=NNc2ccc(Cl)cc2)c2ccc(O)cc2)cc1
A. 30.1

Q. Can you share its IC50? I mean this molecule: Oc1ccc(C(=NOCc2ccccc2)c2ccc(O)cc2)cc1
A. 54.3

Q. Can you share its IC50? I mean this molecule: O=S(=O)(NN=C(c1ccc(O)cc1)c1ccc(O)cc1)c1ccc(Br)cc1
A. 91.8

Q. Can you share its IC50? I mean this molecule: O=S(=O)(NN=C(c1ccc(O)cc1)c1ccc(O)cc1)c1ccccc1
A. 105

----------
- Tested on: pErk in SNU‐1 cells
- methodNotes: HTRF assay of downstream phosphorylation, pErk in SNU-1
- Format: cell-based
- particulars: Homo sapiens, SNU1, read-out: pErk IC50
Each entry below carries its recorded pIC50.
Kindly note that pIC50 refers to -log10 of the concentration in mol/L and answer with the value alone.

Solved entries:
1. Oc1ccc(C(=NOCc2ccccc2)c2ccc(O)cc2)cc1 [compound 11] | 3.66
2. Oc1ccc(C(=NNc2ccc(F)cc2)c2ccc(O)cc2)cc1 [7 c] | 3.34
3. O=S(=O)(NN=C(c1ccc(O)cc1)c1ccc(O)cc1)c1ccc(Cl)cc1 [8 c] | 3.62

Q. Can you share its pIC50? I mean this compound: Oc1ccc(C(=NNc2ccc(C(F)(F)F)cc2)c2ccc(O)cc2)cc1 [7 e]
A. 3.28
